Reference source for all entries: the supplement of paper PMC11451515

# System: SEM cells
# assay-text: cell viability relative to DMSO control; higher = less cytotoxic
# conditions: HPLM + 10% dialyzed FBS; 48 h; 46.1 µM
reported-property: cell viability

molecule | assayed-system | reported-value
CNC(=O)c1ccc(N2C(=S)N(c3cnc(C#N)c(C(F)(F)F)c3)C(=O)C23CCC3)cc1F | SEM cells | 95.2%
O=C(O)C1(Cc2cccc(Nc3nccs3)n2)CCC(Oc2cccc(Cl)c2F)CC1 (stereo not given) | SEM cells | 18.9%

If you can, please state the reported cell viability value of c1ccc(CCCN2CCN(CCOC(c3ccccc3)c3ccccc3)CC2)cc1 .
44.6%

Then CNCC(O)c1ccc(O)cc1 (stereo not given) ?
93.6%

Follow-up item: C[C@H](NC(=O)c1sccc1OCc1ccc(Cl)cc1)c1ccccc1
51%

Follow-up item: COC(=O)C[C@](O)(CCCC(C)(C)O)C(=O)O[C@@H]1C(OC)=CC23CCCN2CCc2cc4c(cc2[C@H]13)OCO4 (stereo not given in full)
102%

* * *

# Test system: NOMO1
# assay-text: cell viability relative to DMSO control; higher = less cytotoxic
# conditions: RPMI 5 mM glucose + 10% FBS; 48 h; 0.19 µM
Documented cell viability across a set of compounds
# number only, unit % dropped from output

compound | unit-name | reported-value
ClC1=CC=C(C=C1)C(C#N)C2=C(Cl)C=C(C=C2Cl)N3\N=C/C(=O)NC3=O (stereo not drawn) | % | 94.6
CC(C)(C)OC(=O)N[C@H]1CCCCC/C=C\[C@@H]2C[C@@]2(C(=O)N[S+](=O)([O-])C2CC2)NC(=O)[C@@H]2C[C@@H](OC(=O)N3Cc4cccc(F)c4C3)CN2C1=O | % | 106
CNC(=O)c1ccc2cc(C3(O)CCn4cncc43)ccc2c1 (stereo not drawn) | % | 96.8
CC1(C)O[C@@H]2C[C@H]3[C@@H]4C[C@H](F)C5=CC(=O)C=C[C@]5(C)[C@@]4(F)[C@@H](O)C[C@]3(C)[C@]2(C(=O)CO)O1 | % | 114
Cc1ccccc1C(=O)c1ccc(Nc2ccc(Br)cc2N)cc1Cl | % | 113
CN1CCN(C2=Nc3cc(Cl)ccc3Nc3ccccc32)CC1 | % | 101

Kindly state the measured cell viability obtained for O=c1[nH]c(=O)n([C@H]2C[C@H](O)[C@@H](CO)O2)cc1/C=C/Br with NOMO1.
101

// repeat for CC1CNc2c(cccc2[S+](=O)([O-])N[C@@H](CCCNC(=N)N)C(=O)N2CC[C@@H](C)C[C@@H]2C(=O)O)C1 (stereo partly drawn) and report
98.2

* * *

# Tested on: P12-Ichikawa
# assay-text: cell viability relative to DMSO control; higher = less cytotoxic
# conditions: HPLM + 10% dialyzed FBS; 48 h; 0.00702 µM
reported-property: cell viability (%)
Numeric only. Scale: %

Please review the entries below; each comes with its answer.
molecule | cell viability (%)
N#CCNC(=O)c1ccc(-c2ccnc(Nc3ccc(N4CCOCC4)cc3)n2)cc1 | 118
CC(C)(C#N)c1cc(Cn2cncn2)cc(C(C)(C)C#N)c1 | 117
CC(C)c1nc(CN(C)C(=O)N[C@H](C(=O)N[C@@H](Cc2ccccc2)C[C@H](O)[C@H](Cc2ccccc2)NC(=O)OCc2cncs2)C(C)C)cs1 | 87.2

Which cell viability is reported for this molecule? CN[C@H]1CCC2=CC(=C(OC)C(=C2C/3=C/C=C(OC)\C(=O)/C=C13)OC)OC
104

Same question for CC[S+](=O)([O-])c1cccc(-c2cc(C(=O)NC3CCN(C)CC3)c(C)c3[nH]c4ncc(C)cc4c23)c1 please.
123

Again, but for Cc1nn(Cc2ccccc2Cl)c(C)c1CN(C)CC(O)COc1ccc(Cl)cc1 (centres undefined)
105

Now give it for CN1CCN(C2=Nc3cc(Cl)ccc3Nc3ccccc32)CC1 too.
108

Another molecule to look at: N[S+]([O-])(=O)C1=CC=C(NC/2=C/C(=O)C3=CC=CC=C3C2=O)C=C1
119

Also COc1cc(OC2CCN(C)CC2)ccc1Nc1ncc2c(n1)n(C1CCCC1)c(=O)n2C , if possible.
83

* * *

The following compounds are listed with their measured cell viability values.
# Tested on: P12-Ichikawa
# assay-text: cell viability relative to DMSO control; higher = less cytotoxic
# conditions: RPMI 5 mM glucose + 10% FBS; 48 h; 0.000781 µM
Form entry: value (%) — number only.

Below are worked cases with known answers.
compound | unit-name | cell viability
C[C@]12COC(=O)C[C@@H]1CC[C@@H]1[C@@H]2CC[C@@]2(C)[C@H]1CC[C@]2(C)O | % | 106
CNCCCC12CCC(c3ccccc31)c1ccccc12 | % | 94.1
CN[C@@H](C)[C@H]1[C@H](O)C[C@@]2(C)[C@@H]3CC[C@H]4C(C)(C)[C@@H](NC)CC[C@@]45C[C@@]35CC[C@]12C | % | 95.4
Clc1ccc(-c2nc3sccn3c2/C=N/OCc2ccc(Cl)c(Cl)c2)cc1 | % | 111

Item: C[C@]12CC[C@@H]3c4ccc(O)cc4CC[C@H]3[C@@H]1[C@@H](O)[C@@H](O)[C@@H]2O Test system: P12-Ichikawa Read-out: cell viability Value: ?
105

Now consider COCC1(CO)C(=O)C2CCN1CC2 (centres undefined) .
92.7

What do you have for CC(C)c1ccc2c(c1)c(SC(C)(C)C)c(CC(C)(C)C(=O)[O-])n2Cc1ccc(Cl)cc1 ?
96.3

Consider next the compound C[C@H]1COC2=C3N1\C=C(C(O)=O)/C(=O)C3=CC(=C2N4CCN(C)CC4)F in the same way.
111

Same question, Cc1nc2cnc3ccc(C#Cc4cccnc4)cc3c2n1-c1ccc(C(C)(C)C#N)cc1 this time
65.6

* * *

List of cell viability values.
# Test system: SEM cells
# assay-text: cell viability relative to DMSO control; higher = less cytotoxic
# conditions: HPLM + 10% dialyzed FBS; 48 h; 15.4 µM
Give a bare numeral; the unit % is implied.

Missing value: cell viability, SEM cells, entry COc1ccc([S+](=O)([O-])N(C(C)=O)c2ccccc2/C=C/c2cc[n+]([O-])cc2)cc1 . Fill in?
26.5

Then this molecule: COc1cc(OC2CCN(C)CC2)ccc1Nc1ncc2c(n1)n(C1CCCC1)c(=O)n2C
25.6

Check CNC(=O)c1ccc2cc(C3(O)CCn4cncc43)ccc2c1 (configuration not stated) too.
123

Another: CC(C)CNc1ccnc(NCc2csc(-c3ccccc3)n2)n1
64.2

Then what about the molecule CC(C)c1noc(N2CCC(COc3ccc(-c4ccc([S+](C)(=O)[O-])cc4)nc3)CC2)n1 ?
122

Would you kindly repeat that for Clc1ccc(-c2nc3sccn3c2/C=N/OCc2ccc(Cl)c(Cl)c2)cc1 ?
101

Request: CC(C)c1ccc2c(c1)c(SC(C)(C)C)c(CC(C)(C)C(=O)[O-])n2Cc1ccc(Cl)cc1
107

* * *

# System: P12-Ichikawa
# assay-text: AUC of viability dose-response curve (% viability x log10 dose units); higher = less sensitive
# conditions: RPMI 5 mM glucose + 10% dialyzed FBS; 48 h
reported-property: AUC of viability dose-response curve
API note: the answer field is a bare number with no unit suffix.

compound | reported-value
C[C@]\12CC[C@H](O)CC1=C/C[C@@H]3[C@@H]2CC[C@@]\4(C)[C@H]3C\C=C4C5=CN=CC=C5 | 459

From here, focus on the item given below.
Bench note: what AUC of viability dose-response curve did Cc1c(C)n(Cc2ccc(-c3ccccc3C(=O)O)cc2)c2ccc(C(=O)N[C@@H](C)c3ccc([N+](=O)[O-])cc3)cc12 show?
422

* * *

Below, each entry is listed alongside its reported cell viability.
# Tested on: P12-Ichikawa
# assay-text: cell viability relative to DMSO control; higher = less cytotoxic
# conditions: HPLM + 10% dialyzed FBS; 48 h; 1.71 µM
Please state the figure in %; there is no need to write the unit.

mol | assayed-system | cell viability / %
Clc1ccc(-c2nc3sccn3c2/C=N/OCc2ccc(Cl)c(Cl)c2)cc1 | P12-Ichikawa | 106
CC[C@H](NC1=C2N=C[NH]C2=NC=N1)C/3=N/C4=C(C(=CC=C4)F)C(=O)N3C5=CC=CC=C5 | P12-Ichikawa | 118

Would you kindly share the measured cell viability for CNCCCC12CCC(c3ccccc31)c1ccccc12 ?
92.7

Please give the result for COc1cc(F)c(F)c(Nc2ccc(I)cc2F)c1N[S+](=O)([O-])C1(C[C@H](O)CO)CC1 too.
108

Same thing, different molecule: CC[S+](=O)([O-])c1cccc(-c2cc(C(=O)NC3CCN(C)CC3)c(C)c3[nH]c4ncc(C)cc4c23)c1
19.5

Proceed to N[S+]([O-])(=O)C1=C(Cl)C=C2\N=C/N[S+]([O-])(=O)C2=C1
119

Can you handle Cn1cnc2c(F)c(Nc3ccc(Br)cc3F)c(C(=O)NOCCO)cc21 next?
85.7

Follow-up item: OC[C@H]1O[C@H]([C@H](O)[C@@H]1O)N2\C=C/C(=O)NC2=O
103

Ok, now C[C@H]1COC2=C3N1\C=C(C(O)=O)/C(=O)C3=CC(=C2N4CCN(C)CC4)F
109
